# Tested on: U2OS
# protocol-notes: Incucyte cell viability with U2OS; further: unitless GR value; below 1 slowed growth and below 0 cell loss
# Format: toxicity, cell-based
# assay-setup: human, 24 h, 10 µM, compound concentration 10 uM, replicate number 1, timepoint 24 hours
endpoint-label: Growth Rate
Just the number, please, no unit after it.

Below, each entry is followed by its recorded Growth Rate result.
• Cc1ccc(F)cc1C(=O)Nc1ccc(C(=O)N2Cc3cccn3Cc3ccccc32)c(Cl)c1 = 0.9
• COc1ccc(NC(=O)c2ccc(-c3ccc(-c4noc(C)n4)cc3C)cc2)cc1OCCN(C)C.Cl = -0.18
• CNC(=O)c1nn(C)c2c1C(C)(C)Cc1cnc(Nc3ccc(N4CCN(C)CC4)cc3)nc1-2 = 0.21
• C[S+](C)[O-] [DIMETHYL SULFOXIDE] = 0.98

// assay U2OS, entry `COCCn1c(C)c(C)s/c1=N\C(=O)C1C(C)(C)C1(C)C` , Growth Rate value = 0.98

// assay U2OS, entry `N=C(N)NCCC[C@@H](NC(=O)C(c1ccccc1)c1ccccc1)C(=O)NCc1ccc(CNC(N)=O)cc1.O=C(O)C(F)(F)F.O=C(O)C(F)(F)F` , Growth Rate value = 0.82

// assay U2OS, entry `COc1c(C)cc(NC(=O)c2nn(Cc3ccc(F)cc3)c3c2CN(C(=O)c2ccc[nH]2)C[C@]3(C)C(N)=O)cc1C` , Growth Rate value = 0.61

====

# System: HEK-293T
# protocol-notes: Incucyte cell viability with HEK293T; further: unitless GR value; below 1 slowed growth and below 0 cell loss
# Assay type: toxicity, cell-based
# assay-setup: human, 24 h, 10 µM, compound concentration 10 uM, replicate number 1, timepoint 24 hours
Recorded Growth Rate values for a group of compounds are listed next.
Just the number, please, no unit after it.

Below, each entry is followed by its recorded Growth Rate result.
* COc1ccncc1C(=O)NC(=O)Nc1ccc(-c2ccccc2)c(C(F)(F)F)c1 | 0.69
* CC(C)Oc1ccc(Cc2ccc(NC3=NCCN3)cc2)cc1 | 0.24
* CCOC(=O)Nc1cc(-c2ccc(C)c(NS(C)(=O)=O)c2)nn2c(C)nnc12 | 0.46
* Cc1c(C(=O)Nc2ccc(N3C[C@@H](C)O[C@@H](C)C3)nc2)cccc1-c1ccc(OC(F)(F)F)cc1 | 0.05
* CC(C)CCC[C@@H](C)[C@H]1CC[C@H]2[C@@H]3[C@H](O)C=C4C[C@@H](O)CC[C@]4(C)[C@H]3CC[C@]12C | 0.85

// assay HEK-293T, entry `O=C1c2c(Br)c(Br)c(Br)c(Br)c2C(=O)N1c1ncc[nH]1` , Growth Rate value = 0.91

// assay HEK-293T, entry `C[C@H](N)Cn1ccc2cc(F)c(Cl)cc21.O=C(O)/C=C/C(=O)O` , Growth Rate value = 0.66

// assay HEK-293T, entry `CCCCC/C=C\C/C=C\C/C=C\C/C=C\CCCC(=O)NCC(=O)O` , Growth Rate value = 0.52

// assay HEK-293T, entry CS(=O)(=O)N1CCCC(NC(=O)[C@H](CCC2CCCCC2)NC(=O)c2ccc(CNc3ncnc4c3nnn4-c3ccccc3)cc2)C1 (some centres undefined) , Growth Rate value = -0.11

====

# Test system: U2OS
# protocol-notes: Incucyte cell viability with U2OS; further: unitless GR value; below 1 slowed growth and below 0 cell loss
# Format: toxicity, cell-based
# assay-setup: human, 24 h, 10 µM, compound concentration 10 uM, replicate number 2, timepoint 24 hours
# cutoff 0.9 applies to Growth Rate; >= gives t, < gives f

* CCC(=O)NC[C@@H]1C[C@H]1c1cccc2c1CCO2 | t

Could you please find out whether `CC(C)C[C@@H](NC(=O)[C@H](Cc1ccccc1)NC(=O)CNC(=O)[C@@H](C)NC(=O)[C@@H](N)Cc1ccc(O)cc1)C(=O)O` has Growth Rate that meets 0.9 or exceeds it?
t

Could you please find out whether `O=C(O)c1n[nH]c2c1C[C@H]1C[C@@H]21` has Growth Rate that meets 0.9 or exceeds it?
t

Could you please find out whether `O=C(Nc1cc(-c2cn[nH]c2)ccc1N1CCOCC1)c1ccc(-c2ccc3ncccc3c2)o1` has Growth Rate that meets 0.9 or exceeds it?
f

Could you please find out whether `N[C@@H](CCP(=O)(O)O)C(=O)O` has Growth Rate that meets 0.9 or exceeds it?
t

Could you please find out whether COC[C@@H](c1ccc(C(F)(F)F)cc1)N1CCN(C2(C)CCN(C(=O)c3c(C)ncnc3C)CC2)C[C@@H]1C.O=C(O)/C=C\C(=O)O [VICRIVIROC MALEATE] has Growth Rate that meets 0.9 or exceeds it?
t

Could you please find out whether `C[C@H](CCC(=O)O)[C@H]1CC[C@H]2[C@@H]3CC[C@@H]4C[C@H](O)CC[C@]4(C)[C@H]3CC[C@]12C` has Growth Rate that meets 0.9 or exceeds it?
f

Could you please find out whether `COc1ccncc1C(=O)NC(=O)Nc1ccc(-c2ccccc2)c(C(F)(F)F)c1` has Growth Rate that meets 0.9 or exceeds it?
t

Could you please find out whether CN1CCN2c3ncccc3Cc3ccccc3C2C1 (stereo not drawn) has Growth Rate that meets 0.9 or exceeds it?
f

Could you please find out whether `C[C@@](Cc1c[nH]c2ccccc12)(NC(=O)Nc1ccc([N+](=O)[O-])cc1)C(=O)NCC1(c2ccccn2)CCCCC1` has Growth Rate that meets 0.9 or exceeds it?
f

Could you please find out whether `CC(C)(C)c1ccc(-c2coc3ccc(-c4cn[nH]c4)nc23)cc1` has Growth Rate that meets 0.9 or exceeds it?
f

====

Recorded Growth Rate values for a group of compounds are listed next.
# System: Fibroblast
# protocol-notes: Incucyte cell viability with human fibroblast; further: unitless GR value; below 1 slowed growth and below 0 cell loss
# Format: toxicity, cell-based
# assay-setup: 6 h, 10 µM, compound concentration 10 uM, replicate number 2, timepoint 6 hours

Below, each entry is followed by its recorded Growth Rate result.
* CN[C@@H]1Cc2cccc3[nH]c(=O)n(c23)C1.O=C(O)/C=C\C(=O)O | 0.8
* CSCC[C@H](NC=O)C(=O)N[C@@H](CC(C)C)C(=O)N[C@@H](Cc1ccccc1)C(=O)O | 0.42

Kindly review the next compound as well.
Lookup result for `CCc1cc2cc(NS(=O)(=O)c3ccc(C#N)cc3)ccc2n(CC)c1=O` ; measured Growth Rate: -0.17

====

# Test system: U2OS
# protocol-notes: Incucyte cell viability with U2OS; further: unitless GR value; below 1 slowed growth and below 0 cell loss
# Assay type: toxicity, cell-based
# assay-setup: human, 24 h, 10 µM, compound concentration 10 uM, replicate number 2, timepoint 24 hours
Recorded Growth Rate values for a group of compounds are listed next.
Just the number, please, no unit after it.

- CC(=O)c1ccc2c(c1)[C@@H]1C=CC[C@@H]1[C@H](c1cc3c(cc1Br)OCO3)N2: -0.31
- COc1ccc(NC(=O)c2ccc(-c3ccc(-c4noc(C)n4)cc3C)cc2)cc1OCCN(C)C.Cl: 0.14
- CSc1ccccc1N1CCN(CCCCCC(=O)NC2CCCc3ccccc32)CC1.Cl (configuration not stated): 0.94
- Nc1nccc(-c2ccn3c(N)nccc23)n1: 0.82

Lookup result for OCCN1CCN(CCCN2c3ccccc3Sc3ccc(Cl)cc32)CC1 [PERPHENAZINE] ; measured Growth Rate: 0.69

Lookup result for `CCc1cc2c(cc1-c1cccc(S(=O)(=O)F)c1)C(C)(C)c1[nH]c3cc(C#N)ccc3c1C2=O` ; measured Growth Rate: 0.78

Lookup result for `COc1cc(C(=O)N(CCCc2ccccc2)Cc2ccc(CC(=O)O)cc2)cc(OC)c1C` ; measured Growth Rate: 0.96

Lookup result for COc1ccc(CN(CCN(C)C)c2ccccn2)cc1 [PYRILAMINE] ; measured Growth Rate: 0.96

Lookup result for CC(C)C[C@H](CO)Nc1nc(S[C@@H](C)c2ccccc2)nc2nc(N)sc12 [AZD-8797] ; measured Growth Rate: 0.79

Lookup result for `CC(C)n1cnc2c(Nc3cccc(Cl)c3)nc(N[C@H]3CCCC[C@@H]3N)nc21` ; measured Growth Rate: 0.05

Lookup result for `CCCCCCCCCCCCC/C=C/[C@@H](O)[C@@H](N)COP(=O)(O)O` ; measured Growth Rate: 0.89

Lookup result for O=S(=O)(c1ccccc1)N(CC(F)(F)F)c1ccc(C(O)(C(F)(F)F)C(F)(F)F)cc1 [T091317] ; measured Growth Rate: 0.81

Lookup result for `CN(c1ncccc1CNc1ccnc(-c2nc3c(F)c(Cl)ccc3[nH]2)n1)S(C)(=O)=O` ; measured Growth Rate: 0.72

====

# Test system: U2OS
# protocol-notes: Incucyte cell viability with U2OS; further: unitless GR value; below 1 slowed growth and below 0 cell loss
# Format: toxicity, cell-based
# assay-setup: human, 24 h, 10 µM, compound concentration 10 uM, replicate number 1, timepoint 24 hours
endpoint-label: Growth Rate
Just the number, please, no unit after it.

* Nc1cnc(N2CCc3cc(S(=O)(=O)Nc4c(F)cc(Cl)cc4F)cc(N4CCCC4=O)c32)nc1 [TP-020n] | 0.66
* COc1cc(NC(=O)CCN2CCC(OC(=O)Nc3ccccc3-c3ccccc3)CC2)c(Cl)cc1CNC[C@H](O)c1ccc(O)c2[nH]c(=O)ccc12 | 1

// assay U2OS, entry `COc1cc(Br)c(S(=O)(=O)Nc2ccc(C(F)(F)F)c(O[C@@H]3CCN(C)C3)c2)cc1OC` , Growth Rate value = 0.77

// assay U2OS, entry `O=C(O)CCn1c2c(c3ccccc31)C[C@H](NS(=O)(=O)c1ccc(F)cc1)CC2` , Growth Rate value = 0.97

// assay U2OS, entry COc1cc2nc(N3CCN(C(=O)c4ccco4)CC3)nc(N)c2cc1OC.Cl [PRAZOSIN HYDROCHLORIDE] , Growth Rate value = 0.77

// assay U2OS, entry `Cn1cc(-c2ccc3occ(-c4cccc(-c5ccncc5)c4)c3n2)cn1` , Growth Rate value = -0.02

// assay U2OS, entry `CC(C)n1cnc2c(Nc3cccc(Cl)c3)nc(N[C@H]3CCCC[C@@H]3N)nc21` , Growth Rate value = 0.06

// assay U2OS, entry `Cc1cc(NC(=O)NCCN2CCC(O)(Cc3ccccc3)CC2)c2ccccc2n1` , Growth Rate value = 0.87

// assay U2OS, entry `CCCCC1=NC2(CCCC2)C(=O)N1Cc1ccc(-c2ccccc2-c2nnn[nH]2)cc1` , Growth Rate value = 0.87

// assay U2OS, entry Cl.NCCc1c[nH]c2ccc(O)cc12 [SEROTONIN HYDROCHLORIDE] , Growth Rate value = 0.62

// assay U2OS, entry COC[C@@H](c1ccc(C(F)(F)F)cc1)N1CCN(C2(C)CCN(C(=O)c3c(C)ncnc3C)CC2)C[C@@H]1C.O=C(O)/C=C\C(=O)O [VICRIVIROC MALEATE] , Growth Rate value = 0.8

// assay U2OS, entry `O=C(O)c1ccccc1S(=O)(=O)NCCCCN1C(=O)c2cccc3cccc(c23)C1=O` , Growth Rate value = 0.67

// assay U2OS, entry `Cc1ccccc1N1CCN(S(=O)(=O)C[C@]23CC[C@H](C[C@@H]2NC(=O)[C@@H](N)CCS(C)(=O)=O)C3(C)C)CC1.Cl` , Growth Rate value = 0.89

// assay U2OS, entry `COc1ccc2nc3ccc(OC)cc3c(SCCCN)c2c1.Cl` , Growth Rate value = 0.14

// assay U2OS, entry `CC(C)N(CCCCOCC(=O)NS(C)(=O)=O)c1cnc(-c2ccccc2)c(-c2ccccc2)n1` , Growth Rate value = 1

// assay U2OS, entry `COc1cc2c(Oc3ccc(NC(=O)C4(C(=O)Nc5ccc(F)cc5)CC4)cc3F)ccnc2cc1OCCCN1CCOCC1` , Growth Rate value = 0

// assay U2OS, entry `CC1=C(C)C(=O)C(C(C)(C)CC(=O)N(CCCCSC[C@H]2O[C@@H](n3cnc4c(N)ncnc43)[C@@H]3OC(C)(C)O[C@@H]32)Cc2cccc(-c3ccc(Cl)cc3)c2)=C(C)C1=O` , Growth Rate value = 0.63

// assay U2OS, entry `Cc1cc(CN)cc(C)c1-c1ncn(C)c1-c1cncn1C` , Growth Rate value = 0.73

// assay U2OS, entry `CC(=O)O[C@H]1C(=O)[C@@]2(C)[C@H]([C@H](OC(=O)c3ccccc3)[C@]3(O)C[C@H](OC(=O)[C@H](O)[C@@H](NC(=O)c4ccccc4)c4ccccc4)C(C)=C1C3(C)C)[C@]1(OC(C)=O)CO[C@@H]1C[C@@H]2O` , Growth Rate value = 0.07

// data source = ChEMBL document CHEMBL5058564
